Reference source for all entries: paper PMC8653295

Target: interaction of the RBD of the SARS‐CoV‐2 S protein with the ACE2 receptor (Severe acute respiratory syndrome coronavirus 2, UniProt P0DTC2)
Type: binding
Conditions: 20 µM
The threshold is inclusive: inhibition of the S/ACE2 interaction of exactly 9% counts as y; values below receive n.

See these solved cases before continuing.
[
  {
    "compound": "C1=CCCC=CCC1.CCn1[c-][n+](CC)c(-c2ccc(F)cc2)c1.[Cl-].[Rh+]",
    "classification": "n"
  },
  {
    "compound": "C1=CCCC=CCC1.CCn1[c-][n+](CC)c(-c2ccccc2)c1.[Br-].[Rh+]",
    "classification": "n"
  },
  {
    "compound": "C1=CCCC=CCC1.Cn1[c-][n+](C)c(-c2ccc(F)cc2)c1.[Cl-].[Rh+]",
    "classification": "y"
  },
  {
    "compound": "Cc1cn(CC=C[c-]2cccc2)c(=O)[nH]c1=O.[Ru+2].c1cc[cH-]c1",
    "classification": "y"
  },
  {
    "compound": "CCn1[c]([Au-][S]C(=S)N2CCC(C(=O)NC3C(O)OC(CO)C(O)C3O)CC2)[n+](CC)c2ccccc21 (mixture of isomers)",
    "classification": "n"
  }
]

Q. Given the entry CO[C@H]1O[C@H](CNC(=O)C2CCN(C(=S)[S-])CC2)[C@@H](O)[C@H](O)[C@H]1O.[Au+3].[Br-].[Br-] , answer whether its inhibition of the S/ACE2 interaction meets or surpasses 9%.
A. y

Q. Is it the case that Cn1cc(-c2ccccc2)[n+](C)[c]1[Au-][c]1n(C)cc(-c2ccccc2)[n+]1C.[I-] has inhibition of the S/ACE2 interaction reaching or exceeding 9%?
A. y

Q. Test whether the compound [Cl][Au].c1ccc(P(c2ccccc2)c2ccccc2)cc1 [Au‐4, (triphenylphosphine)AuCl, reference compound] records inhibition of the S/ACE2 interaction of 9% or higher.
A. y

Q. Exam item: decide whether the reported inhibition of the S/ACE2 interaction for Cc1ccc(C(C)C)cc1.[Cl-].[Cl-].[Ru+2].[c-]1n(Cc2ccccc2)cc[n+]1Cc1ccccc1 is at least 9%.
A. n

Q. Is the recorded value of inhibition of the S/ACE2 interaction equal to or greater than 9% for this compound? CCn1cc(-c2ccccc2)[n+](CC)[c]1[Au-][c]1n(CC)cc(-c2ccccc2)[n+]1CC.[I-]
A. y
